// provenance: patent US20070149446A1

As shown below, each of these compounds has a reported CC50 value.
# Tested on: LN-caP
# measurement-notes: SRB colorimetric cell growth inhibition assay, LN-caP
# test-context: read-out: LC50; LN-caP cells; cell killing; SRB, 48 hours exposure
Starred links: 1 amine or outer side, 2 acyl side, 3 side chain; linkers in the order of their positions; H or OH if unused. Positions of bridges follow the written chain, without caps; N, C: chain ends. Non-standard residues stand in square brackets, D forms with d. Residues, ends and D or L forms follow the SMILES beside them. Hexanoyl(3S-OH,4R-NH2,5-Me) = CC(C)[C@@H](N[*:1])[C@@H](O)CC(=O)[*:2]; NMeY = CN[C@@H](Cc1ccc(O)cc1)C(=O)O; NMeF = CN[C@@H](Cc1ccccc1)C(=O)O; dNMeL = CN[C@H](CC(C)C)C(=O)O; Hiv = CC(C)[C@H](O)C(=O)O; Lac = C[C@H](O)C(=O)O
measurement-label: CC50 (nM)

1) CC(C)C[C@@H]1NC(=O)[C@H](C(C)C)OC(=O)C[C@H](O)[C@@H](C(C)C)NC(=O)[C@@H](NC(=O)[C@@H](CC(C)C)N(C)C(=O)[C@@H]2CCCN2C(=O)[C@H](C)O)[C@@H](C)OC(=O)[C@H](Cc2ccccc2)N(C)C(=O)[C@@H]2CCCN2C1=O [Phe^5 tamandarin B, [N-MePhe^5]-Tamandarin B] (H-[Lac]P[dNMeL]T[Hexanoyl(3S-OH,4R-NH2,5-Me)][Hiv]LP[NMeF]; ester 4-C): 101
2) COc1ccc(C[C@H]2C(=O)O[C@H](C)[C@H](NC(=O)[C@@H](CC(C)C)N(C)C(=O)[C@@H]3CCCN3C(=O)[C@H](C)O)C(=O)N[C@H](C(C)C)[C@@H](O)CC(=O)O[C@@H](C(C)C)C(=O)N[C@@H](CC(C)C)C(=O)N3CCC[C@H]3C(=O)N2C)cc1 [tamandarin B, Tamandarin B, reference compound] (H-[Lac]P[dNMeL]T[Hexanoyl(3S-OH,4R-NH2,5-Me)][Hiv]LP[NMeY](Me); ester 4-C): 142

---

# System: SK-BR3
# measurement-notes: SRB colorimetric cell growth inhibition assay, SK-BR3
# test-context: read-out: LC50; SK-BR3 cells; cell killing; SRB, 48 hours exposure
Starred links: 1 amine or outer side, 2 acyl side, 3 side chain; linkers in the order of their positions; H or OH if unused. Positions of bridges follow the written chain, without caps; N, C: chain ends. Non-standard residues stand in square brackets, D forms with d. Residues, ends and D or L forms follow the SMILES beside them. Hexanoyl(3S-OH,4R-NH2,5-Me) = CC(C)[C@@H](N[*:1])[C@@H](O)CC(=O)[*:2]; NMeY = CN[C@@H](Cc1ccc(O)cc1)C(=O)O; NMeF = CN[C@@H](Cc1ccccc1)C(=O)O; dNMeL = CN[C@H](CC(C)C)C(=O)O; Hiv = CC(C)[C@H](O)C(=O)O; Lac = C[C@H](O)C(=O)O
measurement-label: CC50 (nM)

1) CC(C)C[C@@H]1NC(=O)[C@H](C(C)C)OC(=O)C[C@H](O)[C@@H](C(C)C)NC(=O)[C@@H](NC(=O)[C@@H](CC(C)C)N(C)C(=O)[C@@H]2CCCN2C(=O)[C@H](C)O)[C@@H](C)OC(=O)[C@H](Cc2ccccc2)N(C)C(=O)[C@@H]2CCCN2C1=O [Phe^5 tamandarin B, [N-MePhe^5]-Tamandarin B] (H-[Lac]P[dNMeL]T[Hexanoyl(3S-OH,4R-NH2,5-Me)][Hiv]LP[NMeF]; ester 4-C): 312
2) COc1ccc(C[C@H]2C(=O)O[C@H](C)[C@H](NC(=O)[C@@H](CC(C)C)N(C)C(=O)[C@@H]3CCCN3C(=O)[C@H](C)O)C(=O)N[C@H](C(C)C)[C@@H](O)CC(=O)O[C@@H](C(C)C)C(=O)N[C@@H](CC(C)C)C(=O)N3CCC[C@H]3C(=O)N2C)cc1 [tamandarin B, Tamandarin B, reference compound] (H-[Lac]P[dNMeL]T[Hexanoyl(3S-OH,4R-NH2,5-Me)][Hiv]LP[NMeY](Me); ester 4-C): 236
